The measured values listed here are drawn from ChEMBL document CHEMBL1151850.

Task for the reader: assign each of the following compounds its reported pIC50.
Tested on: HFL1
Test: Cytotoxicity against human HFL1 cells after 24 hrs by MTT assay
Type: cell-based
Settings: HFL1, 24 h
Please keep in mind that pIC50 is minus log10 of the molar concentration; only the number is needed.

Identify measured pIC50 corresponding to CC1(C)CC[C@]2(C(=O)O[C@@H]3O[C@H](CO[C@@H]4O[C@H](COC(=O)C[C@@](C)(O)CC(=O)O)[C@@H](O)[C@H](O)[C@H]4O[C@@H]4O[C@H](CO)[C@@H](O)[C@H](O)[C@H]4O)[C@@H](O)[C@H](O[C@@H]4O[C@H](CO)[C@@H](O)[C@H](O)[C@H]4O)[C@H]3O)CC[C@]3(C)C(=CC[C@@H]4[C@@]5(C)CC[C@H](O)[C@@](C)(C(=O)O)[C@@H]5CC[C@]43C)[C@@H]2C1 [DIANVERSICOSIDE D]
5.47

Please give the documented pIC50 of CC1(C)CC[C@]2(C(=O)O[C@@H]3O[C@H](CO[C@@H]4O[C@H](CO)[C@@H](O)[C@H](O)[C@H]4O[C@@H]4O[C@H](CO)[C@@H](O)[C@H](O)[C@H]4O)[C@@H](O)[C@H](O[C@@H]4O[C@H](CO)[C@@H](O)[C@H](O)[C@H]4O)[C@H]3O)[C@H](O)C[C@]3(C)C(=CC[C@@H]4[C@@]5(C)CC[C@H](O)[C@@](C)(C(=O)O[C@@H]6O[C@H](CO)[C@@H](O)[C@H](O)[C@H]6O)[C@@H]5CC[C@]43C)[C@@H]2C1 [DIANVERSICOSIDE E]
5.46

Using the record for CC1(C)CC[C@]2(C(=O)O)CC[C@]3(C)C(=CC[C@@H]4[C@@]5(C)CC[C@H](O)[C@@](C)(C(=O)O[C@@H]6O[C@H](CO[C@@H]7O[C@H](CO)[C@@H](O)[C@H](O)[C@H]7O[C@@H]7O[C@H](CO)[C@@H](O)[C@H](O)[C@H]7O)[C@@H](O)[C@H](O[C@@H]7O[C@H](CO)[C@@H](O)[C@H](O)[C@H]7O)[C@H]6O)[C@@H]5CC[C@]43C)[C@@H]2C1 [VACCAROID C] , state its measured pIC50.
5.42

Fill in reported pIC50 for this entry: CC1(C)CC[C@]2(C(=O)O[C@@H]3O[C@H](CO[C@@H]4O[C@H](COC(=O)C[C@@](C)(O)CC(=O)O)[C@@H](O)[C@H](O)[C@H]4O[C@@H]4O[C@H](CO)[C@@H](O)[C@H](O)[C@H]4O)[C@@H](O)[C@H](O[C@@H]4O[C@H](CO)[C@@H](O)[C@H](O)[C@H]4O)[C@H]3O)[C@H](O)C[C@]3(C)C(=CC[C@@H]4[C@@]5(C)CC[C@H](O)[C@@](C)(C(=O)O)[C@@H]5CC[C@]43C)[C@@H]2C1 [DIANVERSICOSIDE B]
5.51

Give a short answer stating reported pIC50 for CC1(C)CC[C@]2(C(=O)O[C@@H]3O[C@H](CO[C@@H]4O[C@H](CO)[C@@H](O)[C@H](O)[C@H]4O[C@@H]4O[C@H](CO)[C@@H](O)[C@H](O)[C@H]4O)[C@@H](O)[C@H](O[C@@H]4O[C@H](CO)[C@@H](O)[C@H](O)[C@H]4O)[C@H]3O)CC[C@]3(C)C(=CC[C@@H]4[C@@]5(C)CC[C@H](O)[C@@](C)(C(=O)O)[C@@H]5CC[C@]43C)[C@@H]2C1 [VACCAROID A] .
5.11

Assign pIC50 to the following record: CC1(C)CC[C@]2(C(=O)O[C@@H]3O[C@H](CO[C@@H]4O[C@H](CO)[C@@H](O)[C@H](O)[C@H]4O[C@@H]4O[C@H](CO)[C@@H](O)[C@H](O)[C@H]4O)[C@@H](O)[C@H](O)[C@H]3O)[C@H](O)C[C@]3(C)C(=CC[C@@H]4[C@@]5(C)CC[C@H](O)[C@@](C)(C(=O)O[C@@H]6O[C@H](CO)[C@@H](O)[C@H](O)[C@H]6O)[C@@H]5CC[C@]43C)[C@@H]2C1 [DIANVERSICOSIDE F]
5.36

Give reported pIC50 value for CC1(C)CC[C@]2(C(=O)O[C@@H]3O[C@H](CO[C@@H]4O[C@H](COC(=O)C[C@@](C)(O)CC(=O)O)[C@@H](O)[C@H](O)[C@H]4O[C@@H]4O[C@H](CO)[C@@H](O)[C@H](O)[C@H]4O)[C@@H](O)[C@H](O)[C@H]3O)[C@H](O)C[C@]3(C)C(=CC[C@@H]4[C@@]5(C)CC[C@H](O)[C@@](C)(C(=O)O[C@@H]6O[C@H](CO)[C@@H](O)[C@H](O)[C@H]6O)[C@@H]5CC[C@]43C)[C@@H]2C1 [DIANVERSICOSIDE A]
5.55

Using known records, supply pIC50 for CC1(C)CC[C@]2(C(=O)O[C@@H]3O[C@H](CO[C@@H]4O[C@H](CO)[C@@H](O)[C@H](O)[C@H]4O[C@@H]4O[C@H](CO)[C@@H](O)[C@H](O)[C@H]4O)[C@@H](O)[C@H](O[C@@H]4O[C@H](CO)[C@@H](O)[C@H](O)[C@H]4O)[C@H]3O)CC[C@]3(C)C(=CC[C@@H]4[C@@]5(C)CC[C@H](O[C@@H]6OC[C@H](O)[C@H](O)[C@H]6O)[C@@](C)(C(=O)O)[C@@H]5CC[C@]43C)[C@@H]2C1 [DIANVERSICOSIDE G]
5.48
